ASSAY_TARGET: human JAK1 (a.a. 837-1142) (Homo sapiens)
Construct: The catalytic domains of human JAK1 (a.a. 837-1142); His tag (N); made in house; host or cells: insect cells (baculovirus)
ASSAY_EXPLANATION: In vitro JAK kinase assay (HTRF, phosphorylation of biotinylated peptide), JAK1
Type: biochemical
RUN_PARAMETERS: 1 mM ATP; Examples 12-91; read-out: JAK1 IC50 (nM) @ 1 mM ATP
Experimental: Compounds herein were tested for inhibitory activity of JAK targets according to the following in vitro assay described in Park et al., Analytical Biochemistry 1999, 269, 94-104. […] The phosphorylated peptide was detected by homogenous time resolved fluorescence (HTRF). […] Binding to the Europium labeled antibody took place for 40 minutes and HTRF signal was measured on a Fusion plate reader (Perkin Elmer, Boston, Mass.). […]
Where a name gives a salt, the structure may show the parent alone.
PROPERTY_NAME: IC50

Example entries and their recorded answers appear below.
[
  {
    "COMPOUND": "N#CCC(CN1CCN(C(=O)c2ccc(F)cn2)CC1)n1ccc(-c2ncnc3[nH]ccc23)c1 (centres unmarked) [Example 83]",
    "ASSAY_TARGET": "human JAK1 (a.a. 837-1142) (Homo sapiens)",
    "IC50": "< 10 nM"
  },
  {
    "COMPOUND": "N#CCC(CN1CCN(C(=O)c2ccc(C(F)F)cc2F)CC1)n1ccc(-c2ncnc3[nH]ccc23)c1 (centres unmarked) [Example 91]",
    "ASSAY_TARGET": "human JAK1 (a.a. 837-1142) (Homo sapiens)",
    "IC50": "< 10 nM"
  },
  {
    "COMPOUND": "N#CCC(CN1CCN(C(=O)c2ccc(F)cc2F)CC1)n1ccc(-c2ncnc3[nH]ccc23)c1 (centres unmarked) [Example 90]",
    "ASSAY_TARGET": "human JAK1 (a.a. 837-1142) (Homo sapiens)",
    "IC50": "< 10 nM"
  }
]

I'm curious: which IC50 was measured for N#CCC(CN1CCN(C(=O)c2ccc(C#N)cc2F)CC1)n1cc(-c2ncnc3[nH]ccc23)cn1 (single isomer, unassigned) [Example 12, trifluoroacetate Salt] tested on human JAK1 (a.a. 837-1142) (Homo sapiens)? < 10 nM

I'm curious: which IC50 was measured for N#CCC(CN1CCN(C(=O)c2c(F)cc(Cl)cc2F)CC1)n1cc(-c2ncnc3[nH]ccc23)cn1 (centres unmarked) [Example 27] tested on human JAK1 (a.a. 837-1142) (Homo sapiens)? < 10 nM

I'm curious: which IC50 was measured for N#CCC(CN1CCN(C(=O)c2ncc(C(F)(F)F)cc2F)CC1)n1ccc(-c2ncnc3[nH]ccc23)c1 (centres unmarked) [Example 89] tested on human JAK1 (a.a. 837-1142) (Homo sapiens)? 10 to 50 nM

I'm curious: which IC50 was measured for N#CCC(CN1CCN(C(=O)c2cc(F)cc(C#N)c2)CC1)n1ccc(-c2ncnc3[nH]ccc23)c1 (centres unmarked) [Example 86, trifluoroacetate salt] tested on human JAK1 (a.a. 837-1142) (Homo sapiens)? 10 to 50 nM

====

Reported IC50 by item:
ASSAY_TARGET: human JAK1 (a.a. 837-1142) (Homo sapiens)
Construct: The catalytic domains of human JAK1 (a.a. 837-1142); His tag (N); made in house; host or cells: insect cells (baculovirus)
ASSAY_EXPLANATION: In vitro JAK kinase assay (HTRF, phosphorylation of biotinylated peptide), JAK1
Type: biochemical
RUN_PARAMETERS: 1 mM ATP; Examples 92-162; read-out: JAK1 IC50 (nM) @ 1 mM ATP

[
  {
    "COMPOUND": "CCC(CN1CCN(S(=O)(=O)c2ccn(C)n2)CC1)n1cc(-c2ncnc3[nH]ccc23)cn1 (stereo not shown)",
    "IC50": "< 20 nM"
  }
]

Entry COCC1CN(C(=O)c2ccc(C#N)cc2F)CCN1CC(CC#N)n1cc(-c2ncnc3[nH]ccc23)cn1 (single isomer, unassigned) [Example 157—peak 1] has what IC50? > 100 nM

Entry Cc1c(Nc2cc(F)ccc2F)ncnc1N1CCC(C(CC#N)n2cc(-c3ncnc4[nH]ccc34)cn2)CC1 (stereo not shown) has what IC50? < 20 nM

====

ASSAY_TARGET: human JAK1 (a.a. 837-1142) (Homo sapiens, UniProt P23458)
Construct: The catalytic domains of human JAK1 (a.a. 837-1142); His tag (N); made in house; host or cells: insect cells (baculovirus)
Sequence (P23458 849-1154): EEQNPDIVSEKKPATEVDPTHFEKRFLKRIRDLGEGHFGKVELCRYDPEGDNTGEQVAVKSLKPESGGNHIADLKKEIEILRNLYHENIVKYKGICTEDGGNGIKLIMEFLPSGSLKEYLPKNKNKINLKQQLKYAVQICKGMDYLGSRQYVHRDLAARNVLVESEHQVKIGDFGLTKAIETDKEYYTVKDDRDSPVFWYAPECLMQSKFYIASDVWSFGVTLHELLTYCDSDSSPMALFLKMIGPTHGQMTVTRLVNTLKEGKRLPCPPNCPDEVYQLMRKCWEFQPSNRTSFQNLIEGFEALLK
ASSAY_EXPLANATION: In vitro JAK kinase assay (HTRF, phosphorylation of biotinylated peptide), JAK1
Format: biochemical
RUN_PARAMETERS: 1 mM ATP; Examples 12-91; read-out: JAK1 IC50 (nM) @ 1 mM ATP
Structures can show the parent of a compound that is named as a salt.
Reported IC50 by item:

Example entries and their recorded answers appear below.
[
  {
    "COMPOUND": "COc1ccc(C(=O)N2CCN(CC(CC#N)n3cc(-c4ncnc5[nH]ccc45)cn3)CC2)cc1Cl (centres unmarked) [Example 44, trifluoroacetate salt]",
    "IC50": "< 10 nM"
  },
  {
    "COMPOUND": "Cc1cccc(S(=O)(=O)N2CCN(CC(CC#N)n3cc(-c4ncnc5[nH]ccc45)cn3)CC2)n1 (centres unmarked)",
    "IC50": "< 10 nM"
  },
  {
    "COMPOUND": "N#CCC(CN1CCN(C(=O)c2ccc(F)c(OC(F)(F)F)c2)CC1)n1ccc(-c2ncnc3[nH]ccc23)c1 (centres unmarked)",
    "IC50": "10 to 50 nM"
  },
  {
    "COMPOUND": "N#CCC(CN1CCN(C(=O)Nc2ccccc2OC(F)F)CC1)n1cc(-c2ncnc3[nH]ccc23)cn1 (centres unmarked)",
    "IC50": "10 to 50 nM"
  },
  {
    "COMPOUND": "COc1cscc1C(=O)N1CCN(CC(CC#N)n2cc(-c3ncnc4[nH]ccc34)cn2)CC1 (centres unmarked)",
    "IC50": "10 to 50 nM"
  },
  {
    "COMPOUND": "N#CCC(CN1CCN(S(=O)(=O)c2ccccc2C#N)CC1)n1cc(-c2ncnc3[nH]ccc23)cn1 (centres unmarked)",
    "IC50": "< 10 nM"
  },
  {
    "COMPOUND": "N#CCC(CN1CCN(C(=O)c2ccc(F)cc2C(F)(F)F)CC1)n1cc(-c2ncnc3[nH]ccc23)cn1 (centres unmarked)",
    "IC50": "10 to 50 nM"
  },
  {
    "COMPOUND": "N#CCC(CN1CCN(C(=O)c2ccc(F)c(OC(F)(F)F)c2)CC1)n1cc(-c2ncnc3[nH]ccc23)cn1 (centres unmarked)",
    "IC50": "10 to 50 nM"
  }
]

I'm curious: which IC50 was measured for COc1c(F)cc(C(=O)N2CCN(CC(CC#N)n3cc(-c4ncnc5[nH]ccc45)cn3)CC2)cc1F (centres unmarked) tested on human JAK1 (a.a. 837-1142) (Homo sapiens, UniProt P23458)? 10 to 50 nM

I'm curious: which IC50 was measured for N#CCC(CN1CCN(S(=O)(=O)c2cccnc2)CC1)n1cc(-c2ncnc3[nH]ccc23)cn1 (centres unmarked) tested on human JAK1 (a.a. 837-1142) (Homo sapiens, UniProt P23458)? < 10 nM

I'm curious: which IC50 was measured for N#CCC(CN1CCN(C(=O)Nc2ccccc2OC(F)(F)F)CC1)n1cc(-c2ncnc3[nH]ccc23)cn1 (centres unmarked) tested on human JAK1 (a.a. 837-1142) (Homo sapiens, UniProt P23458)? 10 to 50 nM

I'm curious: which IC50 was measured for N#CCC(CN1CCN(S(=O)(=O)c2cc(F)ccc2F)CC1)n1cc(-c2ncnc3[nH]ccc23)cn1 (centres unmarked) [Example 62, trifluoroacetate salt] tested on human JAK1 (a.a. 837-1142) (Homo sapiens, UniProt P23458)? < 10 nM

I'm curious: which IC50 was measured for N#CCC(CN1CCN(C(=O)c2cc(F)cc(Cl)c2)CC1)n1cc(-c2ncnc3[nH]ccc23)cn1 (centres unmarked) [Example 46, trifluoroacetate salt] tested on human JAK1 (a.a. 837-1142) (Homo sapiens, UniProt P23458)? < 10 nM

I'm curious: which IC50 was measured for C[C@@H]1CN(C(=O)c2ccc(C#N)cc2F)CCN1CC(CC#N)n1cc(-c2ncnc3[nH]ccc23)cn1 (single isomer, unassigned) [24, R-2] tested on human JAK1 (a.a. 837-1142) (Homo sapiens, UniProt P23458)? > 100 nM

====

Reported IC50 by item:
ASSAY_TARGET: human JAK1 (a.a. 837-1142) (Homo sapiens)
Construct: The catalytic domains of human JAK1 (a.a. 837-1142); His tag (N); made in house; host or cells: insect cells (baculovirus)
ASSAY_EXPLANATION: In vitro JAK kinase assay (HTRF, phosphorylation of biotinylated peptide), JAK1
Assay type: biochemical
RUN_PARAMETERS: 1 mM ATP; Examples 1-11; read-out: IC50 (nM) @ 1 mM ATP JAK1
Procedure: Compounds herein were tested for inhibitory activity of JAK targets according to the following in vitro assay described in Park et al., Analytical Biochemistry 1999, 269, 94-104. […] The phosphorylated peptide was detected by homogenous time resolved fluorescence (HTRF). […] Binding to the Europium labeled antibody took place for 40 minutes and HTRF signal was measured on a Fusion plate reader (Perkin Elmer, Boston, Mass.). […]

Example entries and their recorded answers appear below.
[
  {
    "COMPOUND": "Cn1ccc(S(=O)(=O)N2CCC(CC(CC#N)n3cc(-c4ncnc5[nH]ccc45)cn3)CC2)n1 (stereo not shown)",
    "IC50": "< 10 nM"
  },
  {
    "COMPOUND": "CC(CN1CCN(S(=O)(=O)c2ccn(C)n2)CC1)n1cc(-c2ncnc3[nH]ccc23)cn1 (stereo not shown) [Example 9]",
    "IC50": "< 10 nM"
  },
  {
    "COMPOUND": "N#CCC(CN1CCN(C(=O)c2cc(F)cc(F)c2)CC1)n1cc(-c2ncnc3[nH]ccc23)cn1 (stereo not shown)",
    "IC50": "10 to 20 nM"
  }
]

Now take the following compound into account.
Entry N#CCC(CN1CCN(C(=O)c2ccc(C#N)cc2)CC1)n1cc(-c2ncnc3[nH]ccc23)cn1 (stereo not shown) has what IC50? < 10 nM
